- ASSAY SYSTEM: HIV-1 Env of isolate MGRM-D-002 (subtype D) (HIV-1)
- TEST METHOD NOTES: cell-based or functional assay

| BINDER | PREFIX OPERATOR | IC50 (neutralization) (µg/mL) |
| --- | --- | --- |
| PGT-135 (antibody, V domains shown) VH: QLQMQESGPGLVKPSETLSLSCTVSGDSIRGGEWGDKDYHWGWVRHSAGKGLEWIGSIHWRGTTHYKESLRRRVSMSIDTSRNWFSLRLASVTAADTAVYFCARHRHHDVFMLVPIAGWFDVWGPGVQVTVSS VL: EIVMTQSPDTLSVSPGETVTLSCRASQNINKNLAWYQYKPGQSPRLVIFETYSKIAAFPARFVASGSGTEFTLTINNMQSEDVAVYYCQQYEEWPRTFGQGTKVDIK | > | 50 |
| PGT-127 (antibody, V domains shown) VH: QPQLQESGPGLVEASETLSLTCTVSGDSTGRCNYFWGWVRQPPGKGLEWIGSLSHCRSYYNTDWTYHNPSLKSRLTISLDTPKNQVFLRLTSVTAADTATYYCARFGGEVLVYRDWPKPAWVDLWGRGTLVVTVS VL: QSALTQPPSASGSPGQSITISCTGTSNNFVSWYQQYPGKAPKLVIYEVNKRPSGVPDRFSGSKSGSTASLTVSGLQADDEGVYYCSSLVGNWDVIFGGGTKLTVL | = | 0.6 |
